test system: CCRIS mutagenicity, Ames/micronucleus/aberration tests; assay: CCRIS mutagenicity studies; conditions: Test System: MOUSE LYMPHOMA; Strain/Indicator: L5178Y (TK+/TK-); Metabolic Activation: NONE; Method: SUSPENSION/PLATE
Active and inactive are the calls of the source. The rule behind the calls is not given here.
Possible outcomes: active, inactive

- O.O=P([O-])([O-])[O-].[Fe+3]: inactive
- CC1CS1 (stereo not given): active
- CC(=O)N(O)CCCCCNC(=O)CCC(=O)N(O)CCCCCNC(=O)CCC(=O)N(O)CCCCCN: active
- O=C1C(=O)c2cccc3cccc1c23: active
- C[Si]1(C)O[Si](C)(C)O[Si](C)(C)O1: inactive
- Oc1c(Br)cc(Br)cc1Br: active
- CCOC(=O)CC(=O)CCl: active
- Nc1ncn([C@@H]2O[C@H](CO)[C@@H](O)[C@@H]2O)c(=O)n1: active
- NC(=O)N/N=C/c1ccc([N+](=O)[O-])o1: active
- C/C=C/C=C/C=O: active
- C=CC(=O)OCCOC1CC2CC1C1CC=CC21 (stereo not given): active
- CCN(CCCl)CCCNc1c2ccc(Cl)cc2nc2ccc(OC)cc12: active
- O=C(Nc1ccc2c(c1)C=C(S(=O)(=O)O)/C(=N/Nc1ccc(N=Nc3ccc(S(=O)(=O)O)cc3)cc1S(=O)(=O)O)C2=O)Nc1ccc2c(c1)C=C(S(=O)(=O)O)/C(=N/Nc1ccc(N=Nc3ccc(S(=O)(=O)O)cc3)cc1S(=O)(=O)O)C2=O: inactive
- O=S(=O)(O)c1c(N=Nc2c(O)ccc3ccccc23)ccc2ccccc12: inactive
- CCO[Si](C)(OCC)OCC: inactive
- CC(=O)OC/N=[N+](/C)[O-]: active
- C[Si](C)(C)O[Si](C)(C)C: inactive
- Nc1nc(NO)c2[nH]cnc2n1: active
- Cc1cc(N)sn1: active
- C=CC(=O)OCCO: active
- FC(F)(F)I: inactive
- CC(=O)CC(C)C: active
- CCCCC1C(=O)N(c2ccccc2)N(c2ccccc2)C1=O: active
- C[C@@H]1O[C@@H](O[C@H]2C[C@@H](O)[C@]3(CO)[C@H]4[C@H](O)C[C@]5(C)[C@@H](C6=CC(=O)OC6)CC[C@]5(O)[C@@H]4CC[C@]3(O)C2)[C@H](O)[C@H](O)[C@H]1O: active
- COc1ccc(N)cc1: active
